B1: VH:VL chains; a variant is named by its letters at X, in order (parent)
chain 1: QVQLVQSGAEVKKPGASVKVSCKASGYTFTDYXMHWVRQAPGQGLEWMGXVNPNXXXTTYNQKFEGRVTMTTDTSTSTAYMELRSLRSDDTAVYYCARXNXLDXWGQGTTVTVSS
chain 2: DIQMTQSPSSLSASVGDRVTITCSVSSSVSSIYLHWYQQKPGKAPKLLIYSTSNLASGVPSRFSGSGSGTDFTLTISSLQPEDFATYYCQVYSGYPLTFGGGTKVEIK

# Variants of: B1
# assay-remarks: yeast display scFab, FACS + sequencing
# assay-setup: with MET
The list shows a part of the results. How many sequences the whole screen found active is unknown.
test-readout: antigen binding call

Example results:
ARAASAGA : no binding
DARGGSSA : no binding
FKRGDAGD : binds
YTGTSASD : no binding
SRARGAAA : binds
VKERGAVA : no binding

Request: Request the reported antigen binding call associated with "VETEGDAV"
Response: no binding

Request: Request the reported antigen binding call associated with "SRARGAGA"
Response: binds

Request: Request the reported antigen binding call associated with "YRGKSALA"
Response: binds

Request: Request the reported antigen binding call associated with "DTGTGDAA"
Response: no binding

Request: Request the reported antigen binding call associated with "DRRGDASD"
Response: no binding

Request: Request the reported antigen binding call associated with "VARAADAD"
Response: no binding

Request: Request the reported antigen binding call associated with "YKGKGSSS"
Response: binds

Request: Request the reported antigen binding call associated with "VERGTYGV"
Response: no binding

Request: Request the reported antigen binding call associated with "YEGGGDVA"
Response: no binding

Request: Request the reported antigen binding call associated with "YKRGSDGA"
Response: binds

Request: Request the reported antigen binding call associated with "SGEGGAGA"
Response: no binding

Request: Request the reported antigen binding call associated with "VKKEDAGD"
Response: no binding

Sourced from the emibetuzumab library of Makowski et al. (2022)
